Target: T1, human α7 nicotinic acetylcholine receptor stably expressed in the rat pituitary tumor-derived cell line GH4C1 (human, UniProt P36544 23-502)
T1 construct: also called α7 nAChR; human α7 nAChR
T1 sequence (P36544 23-502): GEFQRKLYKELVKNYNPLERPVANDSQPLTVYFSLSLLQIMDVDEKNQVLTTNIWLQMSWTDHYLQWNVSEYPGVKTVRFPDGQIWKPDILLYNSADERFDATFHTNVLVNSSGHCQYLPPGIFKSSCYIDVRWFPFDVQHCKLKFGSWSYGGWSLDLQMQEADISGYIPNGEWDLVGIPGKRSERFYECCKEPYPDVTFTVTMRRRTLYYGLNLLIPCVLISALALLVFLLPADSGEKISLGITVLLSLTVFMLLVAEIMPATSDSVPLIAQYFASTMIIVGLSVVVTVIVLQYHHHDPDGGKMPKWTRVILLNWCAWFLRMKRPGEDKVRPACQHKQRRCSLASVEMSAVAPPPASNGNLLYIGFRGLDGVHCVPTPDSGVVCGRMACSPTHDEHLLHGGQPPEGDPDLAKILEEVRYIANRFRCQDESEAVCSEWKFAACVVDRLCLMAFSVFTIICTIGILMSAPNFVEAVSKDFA
Assay: radioligand binding
Conditions: one partner purified
Positions of bridges follow the written chain, without caps; N, C: chain ends. No end group written: not given here.
MEASURED_ENDPOINT: IC50 (µM)
One number for each entry, in µM.

Examples from the recorded data:
BINDER: CKMVRHQRSPYEVVRRMC (disulfide 1-18)
RESULT_UNITS: µM
IC50: 13.1
//
BINDER: CTRTYYTPTRMC (also called Lynx1 linear short (4); peptide 4) [Lynx1 short linear (4), shorter loop II fragment of human Lynx1 with free terminal Cys]
RESULT_UNITS: µM
IC50: 69.2
//
BINDER: CTTRTYYTPTRMKVSKC (not fully specified (bridges); cysteine pairing not given here, also called Lynx1 fragment (1); peptide 1)
RESULT_UNITS: µM
IC50: 173

(Q) Need IC50 of CTRTYYTPTRMC (not fully specified (bridges); cysteine pairing not given here, also called peptide 3; cyclic shorter form of Lynx1 fragment) [Lynx1 short (3), shorter loop II fragment of human Lynx1 with terminal Cys, disulfide-cyclised] , thanks.
(A) 58.9

Source listed as paper PMC6616073.
